The values you see were collected from the supplement of paper PMC10567573.

B1: ZNF263 (parent)
chain: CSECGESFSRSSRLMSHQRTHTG

- Variants of: B1
- PROCEDURE_TEXT: protein stability index of a GFP-peptide fusion (GPS, HEK-293T) (PSI 1-6); higher = more stable;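 note: lentivirally expressed fusions sorted by FACS into six bins by GFP to DsRed ratio, PSI derived from sequencing read proportions per bin multiplied by bin number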
- RUN_PARAMETERS: c terminus: native
REPORTED_ENDPOINT: protein stability index
The answer should be a number; do not append a unit.

# query: protein stability index of entry CSECGESFSDSSRLMSHQRTHTG [R10D]
5.6

# query: protein stability index of entry CSECGESFSRSSRLMSHQRTGTG [H21G]
3.01

# query: protein stability index of entry CSECGEVFSRSSRLMSHQRTHTG [S7V]
4.13

# query: protein stability index of entry CSECGESFSRSSRLMSHQETHTG [R19E]
3.78

# query: protein stability index of entry CSECGESFSRSSRLMSHQCTHTG [R19C]
5

# query: protein stability index of entry CSECGESFSRSSRLMSHQRSHTG [T20S]
2.44

# query: protein stability index of entry CSECGESFMRSSRLMSHQRTHTG [S9M]
2.68

# query: protein stability index of entry CLECGESFSRSSRLMSHQRTHTG [S2L]
2.67

# query: protein stability index of entry CSECGESFSRSSSLMSHQRTHTG [R13S]
4.84

# query: protein stability index of entry CFECGESFSRSSRLMSHQRTHTG [S2F]
1.91

# query: protein stability index of entry CSECGESFSRSSRLMSHQPTHTG [R19P]
2.44
